Target: Aminopeptidase N (Plasmodium falciparum FcB1/Columbia)
Sequence (O96935 whole entry): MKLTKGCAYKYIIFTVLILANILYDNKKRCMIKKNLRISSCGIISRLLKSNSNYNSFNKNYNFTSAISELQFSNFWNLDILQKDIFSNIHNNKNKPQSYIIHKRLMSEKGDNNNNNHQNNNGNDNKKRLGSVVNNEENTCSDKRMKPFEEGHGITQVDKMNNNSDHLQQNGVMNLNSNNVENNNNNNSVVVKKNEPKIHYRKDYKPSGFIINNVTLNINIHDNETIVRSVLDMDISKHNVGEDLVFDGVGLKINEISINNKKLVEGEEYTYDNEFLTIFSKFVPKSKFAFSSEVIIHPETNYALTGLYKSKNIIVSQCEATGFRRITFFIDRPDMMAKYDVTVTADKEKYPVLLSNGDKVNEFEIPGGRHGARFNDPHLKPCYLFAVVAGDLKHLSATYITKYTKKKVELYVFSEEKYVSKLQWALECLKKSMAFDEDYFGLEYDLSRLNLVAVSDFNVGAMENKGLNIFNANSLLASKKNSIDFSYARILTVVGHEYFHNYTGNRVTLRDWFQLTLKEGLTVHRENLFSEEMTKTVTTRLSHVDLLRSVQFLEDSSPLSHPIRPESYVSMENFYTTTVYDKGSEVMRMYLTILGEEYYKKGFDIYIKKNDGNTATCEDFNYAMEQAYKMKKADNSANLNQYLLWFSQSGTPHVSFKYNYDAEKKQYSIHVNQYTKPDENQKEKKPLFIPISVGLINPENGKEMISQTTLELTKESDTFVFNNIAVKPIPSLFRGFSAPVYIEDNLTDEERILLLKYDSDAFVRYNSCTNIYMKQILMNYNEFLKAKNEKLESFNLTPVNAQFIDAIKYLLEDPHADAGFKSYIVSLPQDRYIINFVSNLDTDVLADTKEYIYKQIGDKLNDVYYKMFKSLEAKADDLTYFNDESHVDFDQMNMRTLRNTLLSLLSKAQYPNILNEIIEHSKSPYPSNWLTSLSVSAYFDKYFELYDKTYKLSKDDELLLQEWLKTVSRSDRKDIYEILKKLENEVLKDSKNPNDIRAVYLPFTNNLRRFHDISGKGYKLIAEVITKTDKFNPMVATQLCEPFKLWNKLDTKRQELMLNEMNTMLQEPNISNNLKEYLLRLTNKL
Test: malaria alanyl aminopeptidase activity blockers – biochemical, fluorogenic H-Leu-NHMec substrate, 1536-well (AID 1445)
Design: species or system Plasmodium falciparum 3D7, 3D7
Calls of active or inactive are those of the source. No rule for the calls is given here.
Measured IC50 accompanies every entry in the list below.
Property Label: IC50

{"Compound": "COC(=O)CN1C(=O)C2(C(C#N)=C(N)Oc3[nH]nc(-c4cccs4)c32)c2ccccc21 (configuration not stated)", "Result": "36.7 µM (active)"}
{"Compound": "Nc1nonc1-c1nc2ccccc2n1CC(=O)N/N=C/c1ccc(-c2ccccc2C(=O)O)o1", "Result": "82.7 µM (active)"}
{"Compound": "Nc1cc(C(=O)O)c(N)c2c1C(=O)c1ccccc1C2=O", "Result": "58.9 µM (active)"}
{"Compound": "C=CCSc1nnc(NC(=O)c2nc(SCC)ncc2Cl)s1", "Result": "94.3 µM (active)"}
{"Compound": "C=CCn1c(NS(=O)(=O)c2ccccc2)c(S(=O)(=O)c2ccc(C)cc2)c2nc3ccccc3nc21", "Result": "36.2 µM (active)"}
{"Compound": "O=C(Cc1ccc(F)cc1)N/N=C/c1ccc(-c2ccc(Cl)c(C(=O)O)c2)o1", "Result": "22.9 µM (active)"}
{"Compound": "COc1ccc(C(=O)Nc2cccc(/C=C(\\CCC(=O)O)c3nc4ccccc4s3)c2)cc1", "Result": "21.8 µM (active)"}
